Known pIC50 of a selection of compounds
# target: CYP2C19 (Homo sapiens)
# Construct: using a specific substrate approach in human liver microsomes; from tissue; host or cells: human liver microsomes
# Sequence (P33261 whole entry): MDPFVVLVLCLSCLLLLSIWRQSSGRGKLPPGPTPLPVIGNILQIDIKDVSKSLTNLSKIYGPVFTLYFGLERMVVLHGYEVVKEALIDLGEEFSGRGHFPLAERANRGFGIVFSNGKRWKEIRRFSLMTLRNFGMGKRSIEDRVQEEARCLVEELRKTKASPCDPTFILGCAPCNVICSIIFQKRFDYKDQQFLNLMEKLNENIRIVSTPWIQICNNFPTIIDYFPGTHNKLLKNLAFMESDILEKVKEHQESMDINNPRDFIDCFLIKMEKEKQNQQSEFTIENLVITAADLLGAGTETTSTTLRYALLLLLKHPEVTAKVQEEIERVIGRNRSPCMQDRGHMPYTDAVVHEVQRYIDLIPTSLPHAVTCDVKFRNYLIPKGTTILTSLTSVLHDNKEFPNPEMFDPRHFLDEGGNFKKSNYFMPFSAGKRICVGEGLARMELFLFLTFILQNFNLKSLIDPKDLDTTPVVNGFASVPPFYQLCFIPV
# method.notes: CYP450 inhibition, specific substrate approach in human liver microsomes: CYP2C19
# Type: in vitro ADME
pIC50: −log10 of the molar value.

Some solved cases for reference:
Br.CCNCc1nc2c(O)c(Cl)cc(Cl)c2c(=O)n1C [Compound F4496] :: < 4.52
CN(C)Cc1nc2c(O)c(Cl)cc(Cl)c2c(=O)n1CC1CC1 [Compound F4267] :: < 4.52
CCNCc1nc2c(O)c(Cl)cc(Cl)c2c(=O)n1CC [Compound F4495] :: < 4.52
CN(C)Cc1nc2c(O)c(Cl)cc(Cl)c2c(=O)n1C [Compound F4269] :: < 4.52
CCN(CC)Cc1nc2c(O)c(Cl)cc(Cl)c2c(=O)n1CC1CC1 [Compound F4385] :: < 4.52

## Task Determine its reported pIC50: CCn1c(CN(C)C)nc2c(O)c(Cl)cc(Cl)c2c1=O.Cl [Compound F4268]
## Result < 4.70

---

# Tested on: Fe-DA
# method.notes: H2O2 assay, Fe-DA (% cf. Fe 0.4 μM/DA 50 μM)
# Type: biochemical
# experimental.conditions: Fe 0.4 μM/DA 50 μM
# Procedure: This fluoresence assay evaluates the ability of a test compound to inhibit the generation of hydrogen peroxide (H2O2) by iron in the presence of a reducing substrate such as ascorbic acid. […] H2O2 generated by the system is assessed by measuring the specific fluorescence profile at the excitation and emission wavelengths of 485 and 530 nm respectively, in the presence of increasing concentrations of test compound. […]
Known Fe-DA % cf. Fe 0.4 μM/DA 50 μM of a selection of molecules
# unit: % | format: bare number

O=c1c2c(Cl)cc(Cl)c(O)c2nc(CN2CCCC2)n1CC1CC1 [Compound F4499] :: 55
CCN(CC)Cc1nc2c(O)c(Cl)cc(Cl)c2c(=O)n1CC1CC1 [Compound F4385] :: 86
CCCN(CCC)Cc1nc2c(O)c(Cl)cc(Cl)c2c(=O)n1CC(C)C [Compound F4548] :: 40
CCN(CC)Cc1nc2c(O)c(Cl)cc(Cl)c2c(=O)n1CC(C)C [Compound F4546] :: 66
CCCN(CCC)Cc1nc2c(O)c(Cl)cc(Cl)c2c(=O)n1CC1CC1 [Compound F4535] :: 62
CCNCc1nc2c(O)c(Cl)cc(Cl)c2c(=O)n1CC(C)C [Compound F4545] :: 148

## Task # lookup: Fe-DA Fe-DA % cf. Fe 0.4 μM/DA 50 μM, key = Br.CCn1c(CNC)nc2c(O)c(Cl)cc(Cl)c2c1=O [Compound F4486]
## Result 56

## Task # lookup: Fe-DA Fe-DA % cf. Fe 0.4 μM/DA 50 μM, key = Br.CCNCc1nc2c(O)c(Cl)cc(Cl)c2c(=O)n1C [Compound F4496]
## Result 45

## Task # lookup: Fe-DA Fe-DA % cf. Fe 0.4 μM/DA 50 μM, key = CN(Cc1ccc(F)cc1)Cc1nc2c(O)c(Cl)cc(Cl)c2c(=O)n1CC1CC1 [Compound F4480]
## Result 46

---

# target: CYP2D6 (Homo sapiens, UniProt P10635)
# Construct: using a specific substrate approach in human liver microsomes; from tissue; host or cells: human liver microsomes
# Sequence (P10635 whole entry): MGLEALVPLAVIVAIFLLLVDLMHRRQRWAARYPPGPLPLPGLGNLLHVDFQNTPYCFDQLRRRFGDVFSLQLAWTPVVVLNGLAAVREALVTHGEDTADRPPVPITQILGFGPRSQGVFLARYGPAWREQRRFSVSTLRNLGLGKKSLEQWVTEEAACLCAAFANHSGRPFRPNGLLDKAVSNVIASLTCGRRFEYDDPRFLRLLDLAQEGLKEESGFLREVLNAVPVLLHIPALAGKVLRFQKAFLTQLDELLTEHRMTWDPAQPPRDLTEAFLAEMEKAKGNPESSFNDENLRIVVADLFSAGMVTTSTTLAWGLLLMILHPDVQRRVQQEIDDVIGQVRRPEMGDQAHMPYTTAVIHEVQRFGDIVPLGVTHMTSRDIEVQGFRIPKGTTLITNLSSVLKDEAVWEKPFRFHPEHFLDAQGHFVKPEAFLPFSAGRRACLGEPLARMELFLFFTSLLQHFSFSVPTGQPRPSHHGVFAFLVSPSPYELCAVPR
# method.notes: CYP450 inhibition, specific substrate approach in human liver microsomes: CYP2D6
# Assay type: in vitro ADME
# experimental.conditions: human, liver microsomes, probe dextromethorphan 3 μM
measurement.label: pIC50
Just the number, please; pIC50 means minus log10 of the concentration in mol/L.

## Task Determine its reported pIC50: CNCc1nc2c(O)c(Cl)cc(Cl)c2c(=O)n1C [Compound F4161]
## Result 4.40
